Target: T1, IL-18 receptor (IL-18Rα/IL-18Rβ) overexpressed on HEK-Blue IL-18 cells (Homo sapiens (Human), UniProt Q13478 19-541; O95256 20-599)
T1 sequence 1: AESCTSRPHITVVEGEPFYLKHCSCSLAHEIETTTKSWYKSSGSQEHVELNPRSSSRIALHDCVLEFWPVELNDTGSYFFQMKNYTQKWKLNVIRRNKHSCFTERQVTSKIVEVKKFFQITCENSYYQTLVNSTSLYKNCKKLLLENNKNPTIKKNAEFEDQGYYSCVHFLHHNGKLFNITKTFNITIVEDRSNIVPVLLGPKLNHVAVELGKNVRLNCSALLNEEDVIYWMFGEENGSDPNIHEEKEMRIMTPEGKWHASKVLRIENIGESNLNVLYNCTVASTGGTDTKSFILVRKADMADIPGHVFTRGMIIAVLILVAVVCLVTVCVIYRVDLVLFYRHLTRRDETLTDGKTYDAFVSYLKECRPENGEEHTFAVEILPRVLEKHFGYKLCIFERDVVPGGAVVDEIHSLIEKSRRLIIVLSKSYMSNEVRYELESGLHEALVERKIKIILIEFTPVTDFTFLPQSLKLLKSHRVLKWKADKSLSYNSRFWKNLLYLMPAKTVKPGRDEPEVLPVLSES
T1 sequence 2: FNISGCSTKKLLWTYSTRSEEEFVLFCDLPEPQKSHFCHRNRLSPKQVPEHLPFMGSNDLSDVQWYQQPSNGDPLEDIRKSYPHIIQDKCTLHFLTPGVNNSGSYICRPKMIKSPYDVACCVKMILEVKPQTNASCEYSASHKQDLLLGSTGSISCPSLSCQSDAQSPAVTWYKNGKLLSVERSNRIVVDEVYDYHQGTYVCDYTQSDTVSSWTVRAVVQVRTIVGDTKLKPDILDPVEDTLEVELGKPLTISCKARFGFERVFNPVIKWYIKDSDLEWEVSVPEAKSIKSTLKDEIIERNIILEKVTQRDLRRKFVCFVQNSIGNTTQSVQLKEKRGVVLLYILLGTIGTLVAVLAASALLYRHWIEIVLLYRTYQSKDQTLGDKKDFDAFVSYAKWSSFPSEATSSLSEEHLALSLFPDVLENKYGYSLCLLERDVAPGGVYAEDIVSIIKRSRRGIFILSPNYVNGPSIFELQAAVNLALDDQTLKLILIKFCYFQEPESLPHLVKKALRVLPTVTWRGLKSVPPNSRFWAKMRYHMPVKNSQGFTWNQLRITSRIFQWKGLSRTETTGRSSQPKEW
Assay: cell-based or functional assay
property-label: HEK-Blue IL-18: Abs 405 (Abs)

1) DGL304 (bispecific antibody, V domains shown) V domain 1: QVQLVESGGGLVQAGGSLRLSCAASGRTFSSYDMGWFRQAPGKEREFVAALRWSGGSTSYADSVKGRFTISRDNAKNTVYLHMNSLKPEDTAVYYCAATLETDSGTYWADYWGQGTQVTVSS V domain 2: QVQLQESGGGLVQPGGSLGLSCAASGIKISVNSMAWYRQAPGERREMVAVISSGGSAVYADSVKGRFTISRDNAKNMVYLQMNSLKPEDTAVYYCHPGSAAYRDYWGQGTQVTVSS: 1.32
2) DGL315 (bispecific antibody, V domains shown) V domain 1: QVQLQESGGGLVQPGGSARLSCVASGIIFNDYHMGWYRQAPGKQRDLVAGITAGGSTTYADSVKGRFTISRDNAKHTVYLQMNNLSPEDTAVYYCNTFYNAILDWGKGTLVTVSS V domain 2: QVQLVESGGGLVQAGGSLRLSCAASGMFFSIGEMGWYRQAPGKQREMVARITRDGRINYADSVEGRFTASRNVAKTTLFLQMNSLKPEDTANYQCTVRRWDEEYWGKGTLVTVSD: 0.58
3) DGL316 (bispecific antibody, V domains shown) V domain 1: QVQLVESGGGLVQAGGSLRLSCAASGRTFSKHAMGWFRQAPGKEREFVAAIDWSGGSTYYADSVKGRFTISRDNAKNTVYLQMDSLKPEDTAVYYCAADSYTDYAQLWLPELESEYDYWGQGTQVTVSS V domain 2: QVQLVESGGGLVQAGGSLRLSCAASGMFFSIGEMGWYRQAPGKQREMVARITRDGRINYADSVEGRFTASRNVAKTTLFLQMNSLKPEDTANYQCTVRRWDEEYWGKGTLVTVSD: 0.58
